Below, each entry is listed alongside its reported IC50.
- experimental target: TEC (Homo sapiens)
- Sequence (P42680 whole entry): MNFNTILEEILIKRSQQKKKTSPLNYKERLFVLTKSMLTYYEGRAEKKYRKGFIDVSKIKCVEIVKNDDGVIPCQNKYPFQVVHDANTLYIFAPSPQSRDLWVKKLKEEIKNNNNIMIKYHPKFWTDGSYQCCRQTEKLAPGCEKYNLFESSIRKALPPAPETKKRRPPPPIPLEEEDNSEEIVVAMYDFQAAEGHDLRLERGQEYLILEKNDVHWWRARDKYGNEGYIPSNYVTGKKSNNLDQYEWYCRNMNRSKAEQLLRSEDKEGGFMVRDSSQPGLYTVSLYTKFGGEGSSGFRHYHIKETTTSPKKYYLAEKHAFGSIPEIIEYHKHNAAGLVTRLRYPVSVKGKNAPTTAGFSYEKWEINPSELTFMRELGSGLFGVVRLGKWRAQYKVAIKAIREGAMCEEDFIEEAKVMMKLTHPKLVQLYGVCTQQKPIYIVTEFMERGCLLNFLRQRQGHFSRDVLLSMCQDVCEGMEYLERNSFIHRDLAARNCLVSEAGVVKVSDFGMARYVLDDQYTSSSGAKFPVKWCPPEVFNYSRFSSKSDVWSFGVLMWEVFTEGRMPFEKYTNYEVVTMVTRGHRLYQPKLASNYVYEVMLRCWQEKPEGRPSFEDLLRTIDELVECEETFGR
- experiment: Inhibition of a panel of kinases, in vitro HotSpot kinase assay: TEC
- Format: biochemical
- cond: E compounds, Table 17

Some entries whose results are on file:
C=CC(=O)N1CCC[C@@H](Nc2nnc(C(N)=O)c(Nc3ccc(-c4ncco4)cc3)n2)C1 [Example E-40] : ≤ 10 nM
C=CC(=O)N1CC[C@@H](N(C)c2cnc(C(N)=O)c(Nc3cc(C)ns3)n2)C1 [Example E-114] : ≤ 10 nM
CC(C)c1ccc(Nc2nc(N3CCC[C@@H](N4CCC[C@@H](Nc5cc(Cl)cc(C(F)(F)F)c5)C4=O)C3)nnc2C(N)=O)cc1 [Example E-128] : 1000 to 10000 nM

Identify the measured IC50 of C=CC(=O)N1CCC[C@@H](Nc2cnc(C(N)=O)c(Nc3ccc(C4CCN(C5CCCC5)CC4)cc3)n2)C1 [Example E-108] for TEC (Homo sapiens).
≤ 10 nM

IC50 of C[C@@H]1[C@H](NC(=O)c2ccc(C3CC3)cc2)CCCN1c1cnc(C(N)=O)c(Nc2ccc(N3CCN(C4CCCC4)C[C@@H]3C)cc2)n1 [Example E-137] on TEC (Homo sapiens)?
10 to 100 nM

API: value(readout= IC50, system= TEC (Homo sapiens), query= C=CC(=O)N1CC[C@@H](N(C)c2nnc(C(N)=O)c(Nc3cc(C)ns3)n2)C1 [Example E-12] )
≤ 10 nM

GET /values?readout=IC50&system=TEC (Homo sapiens)&item= C=CC(=O)N1CCC[C@@H](Nc2nnc(C(N)=O)c(Nc3cnn(C)c3)n2)C1 [Example E-73]
≤ 10 nM
